Biological target: Glyceraldehyde-3-phosphate dehydrogenase (GAPDH) (Homo sapiens)
Construct: endogenous GAPDH in A2780 cell extract
Sequence (P04406 2-335): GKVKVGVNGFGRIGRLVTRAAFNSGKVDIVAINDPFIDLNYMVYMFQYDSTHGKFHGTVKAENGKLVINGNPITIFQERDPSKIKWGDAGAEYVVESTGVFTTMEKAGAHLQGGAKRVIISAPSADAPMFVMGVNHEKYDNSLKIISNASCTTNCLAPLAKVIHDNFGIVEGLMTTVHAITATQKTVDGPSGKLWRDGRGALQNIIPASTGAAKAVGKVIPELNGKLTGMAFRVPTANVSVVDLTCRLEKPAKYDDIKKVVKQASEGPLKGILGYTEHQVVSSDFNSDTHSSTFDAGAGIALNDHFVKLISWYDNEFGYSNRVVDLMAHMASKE
Experiment: GAPDH activity ([…] nm) in A2780 crude cell extract after […] min pre-incubation
Type: biochemical
measured attribute: EC50 (µM)
Output spec: scalar in µM, unitless text.

Request the reported EC50 associated with CCCCn1cc[n+](C)[c]1[Au-][Cl]
2.86

* * *

Target: Glyceraldehyde-3-phosphate dehydrogenase (GAPDH) (Homo sapiens)
Construct: endogenous GAPDH in A2780 cell extract
Test: GAPDH activity ([…] nm) in A2780 crude cell extract after […] min pre-incubation; no adduct seen by ESI-MS with rabbit GAPDH
Format: biochemical
measured attribute: pEC50
// pEC50: -log10(molar conc.)

Notebook entry, Glyceraldehyde-3-phosphate dehydrogenase (GAPDH) (Homo sapiens) assay: pEC50 of CCCCn1cc[n+](C)[c]1[AuH][c]1n(CCCC)cc[n+]1C = ?
5.15
